Test Protocol: H+/Na+ transport assay of purified peptides
Stated Conditions: read-out: EC50, H+/Na+ transport assay; 3rd experiment
Where a SMILES comes first, the peptide text is derived from it. [ ]: non-standard residue; d: D form. The star is where a group is joined. NHCH2CH2OH = OCCN*; For = O=C*
Endpoint Name: pEC50
The value called pEC50 is obtained by taking minus log10 of the concentration in mol/L.

{"columns": ["Compound", "pEC50"],
 "data": [
  ["CC(C)C[C@@H](NC(=O)[C@H](C)NC(=O)CNC(=O)[C@@H](NC=O)C(C)C)C(=O)N[C@@H](C)C(=O)N[C@@H](C(=O)N[C@H](C(=O)N[C@@H](C(=O)N[C@@H](Cc1c[nH]c2ccccc12)C(=O)N[C@H](CC(C)C)C(=O)N[C@@H](Cc1c[nH]c2ccccc12)C(=O)N[C@H](CC(C)C)C(=O)N[C@@H](Cc1c[nH]c2ccccc12)C(=O)N[C@@H](C(=O)N[C@@H](Cc1c[nH]c2ccccc12)C(=O)NCCO)C(C)C)[C@H](C)O)C(C)C)C(C)C [B12] (For-VGA[dL]A[dV]V[dT]W[dL]W[dL]W[dV]W-NHCH2CH2OH)", 8.53]
]}

Entry CC(C)C[C@@H](NC(=O)[C@H](C)NC(=O)CNC(=O)[C@@H](NC=O)C(C)C)C(=O)N[C@@H](C)C(=O)N[C@@H](C(=O)N[C@H](C(=O)N[C@@H](C(=O)N[C@@H](Cc1c[nH]c2ccccc12)C(=O)N[C@H](CC(C)C)C(=O)N[C@@H](Cc1c[nH]c2ccccc12)C(=O)N[C@H](CC(C)C)C(=O)N[C@@H](Cc1c[nH]c2ccccc12)C(=O)N[C@H](CC(C)C)C(=O)N[C@@H](Cc1c[nH]c2ccccc12)C(=O)NCCO)[C@H](C)O)C(C)C)C(C)C [B13] (For-VGA[dL]A[dV]V[dT]W[dL]W[dL]W[dL]W-NHCH2CH2OH) , pEC50 reported as 8.82

Entry CC(C)C[C@@H](NC(=O)[C@H](C)NC(=O)CNC(=O)[C@@H](NC=O)C(C)C)C(=O)N[C@@H](C)C(=O)N[C@@H](C(=O)N[C@H](C(=O)N[C@@H](C(=O)N[C@@H](Cc1c[nH]c2ccccc12)C(=O)N[C@@H](C(=O)N[C@@H](Cc1c[nH]c2ccccc12)C(=O)N[C@@H](C(=O)N[C@@H](Cc1c[nH]c2ccccc12)C(=O)N[C@@H](C(=O)N[C@@H](Cc1c[nH]c2ccccc12)C(=O)NCCO)C(C)C)C(C)C)C(C)C)C(C)C)C(C)C)C(C)C [B03] (For-VGA[dL]A[dV]V[dV]W[dV]W[dV]W[dV]W-NHCH2CH2OH) , pEC50 reported as 8.93

---

System: Streptococcus pyogenes SSI-9
Test Protocol: Antibacterial activity assay of bead-derived peptides (three concentrations)
Type: cell-based
Set-up: key: +++: inhibition by the 640-fold diluted peptide solution; ++: inhibition by the 160-fold diluted solution; +: inhibition by the 40-fold diluted solution; -: no inhibition
Stated Conditions: S. pyogenes, bead-derived peptide solution, three concentrations
Where a SMILES comes first, the peptide text is derived from it. [ ]: non-standard residue; d: D form. The star is where a group is joined. NHCH2CH2OH = OCCN*; For = O=C*
Endpoint Name: antibacterial activity

{"columns": ["Molecule", "Reported Result"],
 "data": [
  ["CC(C)C[C@@H](NC(=O)[C@H](C)NC(=O)CNC(=O)[C@@H](NC=O)C(C)C)C(=O)N[C@@H](C)C(=O)N[C@H](CC(C)C)C(=O)N[C@H](C(=O)N[C@@H](C(=O)N[C@@H](Cc1c[nH]c2ccccc12)C(=O)N[C@@H](C(=O)N[C@@H](Cc1c[nH]c2ccccc12)C(=O)N[C@H](CC(C)C)C(=O)N[C@@H](Cc1c[nH]c2ccccc12)C(=O)N[C@@H](C(=O)N[C@@H](Cc1c[nH]c2ccccc12)C(=O)NCCO)[C@H](C)O)C(C)C)C(C)C)C(C)C [compound 9823] (For-VGA[dL]A[dL]V[dV]W[dV]W[dL]W[dT]W-NHCH2CH2OH)", "-"],
  ["CC(C)C[C@@H](NC(=O)[C@H](C)NC(=O)CNC(=O)[C@@H](NC=O)C(C)C)C(=O)N[C@@H](C)C(=O)N[C@H](CC(C)C)C(=O)N[C@H](C(=O)N[C@H](CC(C)C)C(=O)N[C@@H](Cc1c[nH]c2ccccc12)C(=O)N[C@H](CC(C)C)C(=O)N[C@@H](Cc1c[nH]c2ccccc12)C(=O)N[C@@H](C(=O)N[C@@H](Cc1c[nH]c2ccccc12)C(=O)N[C@@H](C(=O)N[C@@H](Cc1c[nH]c2ccccc12)C(=O)NCCO)C(C)C)[C@H](C)O)C(C)C [compound 2346] (For-VGA[dL]A[dL]V[dL]W[dL]W[dT]W[dV]W-NHCH2CH2OH)", "+"]
]}
